Here the recorded IC50 is given for each entry.
Tested on: Leishmania donovani
Protocol details: Antileishmanial activity against Leishmania donovani MHOM/BR/74/PP75 promastigotes after 72 hrs
Applied conditions: MHOM/BR/74/PP75, 72 h
Could you give me the number in µM? Just the number is fine.

# example entries with known answers
IC50 value, target or system Leishmania donovani, for `CCCCCCCCCCCCC/C=C1/CCC[C@H](OCc2ccccc2)[C@H]1N(CC)CC` : 157

The molecule CCCCCCCCCCCCC/C=C1/CCC[C@@H]2[C@H]1N2Cc1ccccc1 (stereo partly specified) on Leishmania donovani: IC50 was 19.9

Known value: Leishmania donovani IC50 of the molecule `CCCCCCCCCCCCC/C=C1/CCC[C@@H](NCc2ccccc2)[C@@H]1NCCCCCC` equals 13

Record `CCCCCCCCCCCCC/C=C1/CCC[C@@H](NCCCC)[C@@H]1NCCCCCC` has Leishmania donovani IC50 equal to 17.4

Given the molecule `CCCCCCCCCCCCC/C=C1/CCC[C@H](NCCCC)[C@H]1OC(C)=O` and test system Leishmania donovani, the measured IC50 is 8.6

Moving on to another molecule below.
Observed IC50 on Leishmania donovani, entry `CCCCCCCCCCCCC/C=C1/CCC[C@@H](NCCCC)[C@@H]1OC(C)=O` , equals 9.6
